Assay: Example 4: dose response of FKBP constructs 160-255, Ec50, Ec90 and fold change (raw and normalized to mCherry)
Type: cell-based
Conditions: fold change during initial analysis
Measured property: FC (fold change)
Lab note: jot down the number only; don't add units.

Q: Could you tell me which FC (fold change) is on file for FKBP-240: FKBP13 DRD-AcGFP construct of Table 10 (protein, Description of sequence: Construct Name: FKBP-240; Mutation(s): Q72R Q84E A117W V85R DRD E61Y) HCPIKSRKGDVLHMHYTGKLYDGTEFDSSLPRNQPFVFSLGTGERIKGWDQGLLGMCEGEKRKLVIPSELGYGERGWPPKIPGGATLVFEVELLKIER ?
Result: 43.7

Q: I would be grateful if you could share the reported FC (fold change) for FKBP-250 (protein, Description of sequence: Construct Name: FKBP-250; Mutation(s): Q72R Q84E A117W DRD E130F) HCPIKSRKGDVLHMHYTGKLEDGTEFDSSLPRNQPFVFSLGTGEVIKGWDQGLLGMCEGEKRKLVIPSELGYGERGWPPKIPGGATLVFFVELLKIER .
Result: 22.0
